Test system: wild oat (Avena fatua)
EXPERIMENT: Test B postemergence
Format: in vivo
CONDITION LABEL: 500 g ai/ha, scale 0 to 100
Please enter y where Plant response rating, Oat, Wild is greater than or equal to 30, and n where it is lower.

COC(OC)c1nc(C2CC2)nc(N)c1F	n

Could you now consider this next molecule?
Entry `COC(=O)CNc1nc(C2CC2)nc(C(=O)OC)c1Br` : is its Plant response rating, Oat, Wild no less than 30? n

---

Test system: lambsquarters (Chenopodium album)
EXPERIMENT: Test B pre/postemergence
Format: in vivo
CONDITION LABEL: Chenopodium album, pre-emergence, Preemergence, 500 g ai/ha; scale 0 to 100 (0 no effect, 100 complete control); read-out: Lambsquarters plant response rating
ENDPOINT: pest or weed control at 500 g/ha

Completed entries (count: 3):
Nc1nc(C2CC2)nc(C(=O)OCc2ccccc2)c1Br	100%
Nc1nc(C2CC2)nc(C=O)c1F	90%
COC(=O)c1nc(C2CC2)nc(N)c1Cl	100%

Next compound, please.
Please fill in: pest or weed control at 500 g/ha reported for `CCOC(=O)c1nc(-c2ccccc2)nc(N)c1Br` = 60%

---

Tested on: pigweed (Amaranthus retroflexus)
EXPERIMENT: Test B pre/postemergence
Assay type: in vivo
CONDITION LABEL: Postemergence, 500 g ai/ha; scale 0 to 100
One threshold, 90, splits the recorded Plant response rating, Pigweed values: lower ones are Fulfilled, equal or higher ones are Not fulfilled.

Record excerpt, results attached:
CCOC(=O)C(Cl)(Cl)c1nc(C2CC2)nc(N)c1Br	Fulfilled
CCOC(=O)Cc1nc(C2CC2)nc(N=CN(C)C)c1Br	Fulfilled
COC(=O)Cc1nc(C2CC2)nc(N)c1Br	Fulfilled
CCCOC(=O)c1nc(C2CC2)nc(N)c1Br	Not fulfilled
CCOC(=O)C(OC(C)=O)c1nc(C2CC2)nc(N)c1Br (centres unmarked)	Fulfilled

Consider the record given below.
Plant response rating, Pigweed strictly < 90 for this compound? CCOC(=O)C(Cl)c1nc(C2CC2)nc(N)c1Br (centres unmarked) Fulfilled

---

Record form. Attribute: melting point. Fill in for each entry.

# example entries with known answers
COC(=O)c1nc(-c2ccc(Cl)cc2)nc(N)c1Cl	215 to 218 °C
CCOC(=O)c1nc(C2CC2)nc(N)c1Br	107 to 108 °C
Nc1nc(C2CC2)nc(C(=O)O)c1Br	160 to 162 °C
Nc1nc(C2CC2)nc(C(=O)OCc2ccccc2)c1Cl	126 to 128 °C
Nc1nc(C2CC2)nc(C(=O)[O-])c1Br.[Na+]	> 300 °C

Could you report melting point for every entry in the following list?
1. COC(=O)c1nc(C2CC2)nc(N)c1Br
2. CCOC(=O)c1nc(-c2ccccc2)nc(N)c1Br

1: 148 to 150 °C; 2: 110 to 111 °C

// for each compound in input: emit melting point
1. Nc1nc(C2CC2)nc(CO)c1Br
2. Nc1nc(C2CC2)nc(C(=O)OCc2ccccc2)c1Br
3. COC(=O)c1nc(C(C)C)nc(N)c1Cl
4. COC(=O)c1nc(-c2ccc(Br)cc2)nc(N)c1Cl
5. Nc1nc(-c2ccc(Cl)cc2)nc(C(=O)O)c1Cl
6. COC(=O)c1nc(C(C)C)nc(N)c1Br

1. 182 to 185 °C
2. 129 to 131 °C
3. 100 to 104 °C (dec.)
4. 223 to 224 °C
5. 158 to 160 °C
6. 107 to 109 °C

Give measured melting point for every item shown.
1. CCOC(=O)c1nc(C(C)(C)C)nc(N)c1Br
2. COC(=O)c1nc(C2CC2)nc(N)c1I
3. Nc1nc(-c2ccc(Br)cc2)nc(C(=O)O)c1Cl
4. CCOC(=O)c1nc(C(C)C)nc(N)c1Cl
5. NC(=O)c1nc(C2CC2)nc(N)c1Cl
6. CCOC(=O)c1nc(-c2ccc(Br)cc2)nc(N)c1Cl
7. CCOC(=O)c1nc(C2CC2)nc(N)c1Cl

1. 69 to 70 °C
2. 145 to 146 °C
3. 157 to 158 °C (dec.)
4. 102 to 103 °C
5. 232 to 236 °C
6. 136 to 137 °C
7. 87 to 89 °C
